The compounds listed here are annotated with their IC50.
Biological target: human P2X7 receptor (Homo sapiens (Human), UniProt Q99572, R270H)
Sequence (Q99572 whole entry R270H): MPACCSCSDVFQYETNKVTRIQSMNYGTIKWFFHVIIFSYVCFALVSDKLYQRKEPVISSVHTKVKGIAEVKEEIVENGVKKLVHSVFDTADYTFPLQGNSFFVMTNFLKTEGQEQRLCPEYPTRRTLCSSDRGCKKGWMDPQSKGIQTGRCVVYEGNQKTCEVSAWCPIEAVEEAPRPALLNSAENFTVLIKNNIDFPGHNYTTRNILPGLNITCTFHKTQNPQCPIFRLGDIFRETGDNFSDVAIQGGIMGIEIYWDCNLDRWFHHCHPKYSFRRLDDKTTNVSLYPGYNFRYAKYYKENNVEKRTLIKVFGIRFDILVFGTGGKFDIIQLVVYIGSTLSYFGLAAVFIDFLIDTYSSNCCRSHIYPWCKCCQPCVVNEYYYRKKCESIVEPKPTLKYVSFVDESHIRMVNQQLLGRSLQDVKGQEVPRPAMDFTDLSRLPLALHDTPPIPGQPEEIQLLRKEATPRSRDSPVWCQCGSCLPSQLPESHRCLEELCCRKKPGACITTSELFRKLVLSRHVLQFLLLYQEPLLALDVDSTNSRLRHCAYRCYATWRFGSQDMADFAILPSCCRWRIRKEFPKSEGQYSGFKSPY
Experiment: Evaluation of a human P2X7 receptor inhibitory activity (Yo-Pro uptake, BzATP stimulation, FLIPR TETRA)
Assay type: cell-based
Conditions: 1321N1 cells stably expressing human P2X7 receptor, Yo-Pro fluorescence, class symbols

compound	study system	IC50
Cc1c(Cl)cccc1Nc1nc(=O)cc2n1C(c1ccccc1)CCO2 (centres unmarked)	human P2X7 receptor (Homo sapiens (Human), UniProt Q99572, R270H)	10 to 100 nM
COc1ccc(Nc2nc(=O)cc3n2C(c2cc(F)cc(F)c2)CC3)c(C)n1 (centres unmarked)	human P2X7 receptor (Homo sapiens (Human), UniProt Q99572, R270H)	10 to 100 nM

Exam item: Record CCc1cc(Nc2nc(=O)cc3n2C(c2ccccc2)CC3)c(C)cc1OC (centres unmarked) : what is its IC50 with human P2X7 receptor (Homo sapiens (Human), UniProt Q99572, R270H)?
Marked response: < 10 nM

Exam item: Record Cc1cc(OC(F)F)ccc1/N=c1\[nH]c(=O)cc2n1C(c1cc(F)cc(F)c1)CC2 (centres unmarked) : what is its IC50 with human P2X7 receptor (Homo sapiens (Human), UniProt Q99572, R270H)?
Marked response: 10 to 100 nM

Exam item: Record COc1ccc(NC2=NC(=O)N(C)C3=NCC(c4ccc(F)c(F)c4)N23)c(C)n1 (centres unmarked) : what is its IC50 with human P2X7 receptor (Homo sapiens (Human), UniProt Q99572, R270H)?
Marked response: 10 to 100 nM

Exam item: Record COc1ccc(Nc2nc(=O)c(Cl)c3n2C(c2cc(F)cc(F)c2)CC3)c(C)n1 (centres unmarked) : what is its IC50 with human P2X7 receptor (Homo sapiens (Human), UniProt Q99572, R270H)?
Marked response: 10 to 100 nM

Exam item: Record COc1cc(C)c(Nc2nc(=O)cc3n2C(c2ccccc2)CC3)cc1OC (centres unmarked) : what is its IC50 with human P2X7 receptor (Homo sapiens (Human), UniProt Q99572, R270H)?
Marked response: < 10 nM

Exam item: Record COc1cc(C)c(Nc2nc(=O)cc3n2C(c2ccc(F)cc2)CC3)cc1OC (centres unmarked) : what is its IC50 with human P2X7 receptor (Homo sapiens (Human), UniProt Q99572, R270H)?
Marked response: 10 to 100 nM

Exam item: Record CCN1C(=O)N=C(Nc2cc(OC)c(OC)nc2C)N2C1=NCC2c1ccc(F)cc1 (centres unmarked) : what is its IC50 with human P2X7 receptor (Homo sapiens (Human), UniProt Q99572, R270H)?
Marked response: 100 to 500 nM

Exam item: Record COc1ccc(C)c(NC2=NC(=O)N(C)C3=NCC(c4cc(F)cc(F)c4)N23)c1 (centres unmarked) : what is its IC50 with human P2X7 receptor (Homo sapiens (Human), UniProt Q99572, R270H)?
Marked response: 10 to 100 nM

Values compiled from patent US11066409B2.
